Below, each entry is listed alongside its reported hGLP1R cAMP EC50 ratio.
- ASSAY_SYSTEM: human GLP-1 receptor (GLP-1R) (human, UniProt P43220 24-463); further: reference of the scale not given here
- ASSAY_SUMMARY: cell-based or functional assay
// keep it numeric: no unit symbol after the value

Below are worked cases with known answers.
{"BINDER": "YXEGTXTSDXSIXLDXKAQXEFIXXLIEGGPSSG (Aib2, αMeF(2F)6, 4Pal10, αMeF13 (so in the source), Orn16, (2-[2-(2-Amino-ethoxy)-ethoxy]-acetyl)2-(γ-Glu)-CO-(CH2)16-CO2H on K17, Aib20, D-Glu24, αMeY25, C-terminal NH2) [Example 264]", "hGLP1R cAMP EC50 ratio": 3.19}
{"BINDER": "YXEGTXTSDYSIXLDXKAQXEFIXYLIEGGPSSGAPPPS (Aib2, αMeF(2F)6, Nle13, Orn16, (2-[2-(2-Amino-ethoxy)-ethoxy]-acetyl)2-(γ-Glu)-CO-(CH2)16-CO2H on K17, Aib20, D-Glu24, C-terminal NH2) [Example 249]", "hGLP1R cAMP EC50 ratio": 0.778}

QUERY: # lookup: hGLP1R cAMP EC50 ratio of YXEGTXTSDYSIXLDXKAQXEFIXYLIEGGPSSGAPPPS (Aib2, αMeF(2F)6, Aib13, Orn16, (2-[2-(2-Amino-ethoxy)-ethoxy]-acetyl)2-(γ-Glu)-CO-(CH2)16-CO2H on K17, Aib20, D-Glu24, C-terminal NH2) [Example 247]
RESULT: 0.614

QUERY: # lookup: hGLP1R cAMP EC50 ratio of YXEGTXTSDXSIXLDXKAQXEFIXXLIEGG (Aib2, αMeF(2F)6, 4Pal10, αMeF13 (so in the source), Orn16, (2-[2-(2-Amino-ethoxy)-ethoxy]-acetyl)2-(γ-Glu)-CO-(CH2)16-CO2H on K17, Aib20, D-Glu24, αMeY25, C-terminal NH2) [Example 265]
RESULT: 3.27

QUERY: # lookup: hGLP1R cAMP EC50 ratio of FXEGTFTSDYSIXLDKKAQXAFIEYLIEAGPSSGAPPPS (Aib2, αMeL13, (2-[2-(2-Amino-ethoxy)-ethoxy]-acetyl)2-(γ-Glu)-CO-(CH2)16-CO2H on K17, Aib20, C-terminal NH2) [Example 328]
RESULT: 0.575
